TESTED_ON: bsClpYQ (Bacillus subtilis, UniProt P39070+P39778)
Sequence (P39070 2-181): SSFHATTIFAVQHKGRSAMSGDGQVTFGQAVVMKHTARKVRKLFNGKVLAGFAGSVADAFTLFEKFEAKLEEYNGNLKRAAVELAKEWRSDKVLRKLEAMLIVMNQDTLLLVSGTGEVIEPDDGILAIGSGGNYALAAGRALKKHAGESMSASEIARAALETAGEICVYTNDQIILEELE
Sequence (P39778 1-467): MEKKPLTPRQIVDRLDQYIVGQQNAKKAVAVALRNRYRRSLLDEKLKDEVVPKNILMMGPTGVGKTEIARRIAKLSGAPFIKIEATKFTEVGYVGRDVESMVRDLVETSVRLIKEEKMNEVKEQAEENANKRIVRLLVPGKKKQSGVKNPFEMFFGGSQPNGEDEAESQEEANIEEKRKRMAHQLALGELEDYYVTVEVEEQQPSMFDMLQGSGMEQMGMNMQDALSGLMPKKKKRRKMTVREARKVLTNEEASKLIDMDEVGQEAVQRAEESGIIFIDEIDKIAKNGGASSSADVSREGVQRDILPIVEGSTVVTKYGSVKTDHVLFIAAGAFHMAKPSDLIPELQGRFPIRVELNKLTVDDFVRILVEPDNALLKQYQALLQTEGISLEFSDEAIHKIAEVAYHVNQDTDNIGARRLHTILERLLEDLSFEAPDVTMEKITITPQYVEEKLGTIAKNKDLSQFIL
ASSAY_COMMENT: fluorogenic peptidase assay
CONDITION_DESCRIPTION: substrate Cbz-GGL-AMC, ATP present; competitive
pKi: −log10 of the molar value.
OBSERVATION_TYPE: pKi

1. CCCCCCc1c(O)c(Cl)cc2c1OC1(C2=O)C(Cl)=C(Cl)C(=O)N1C (racemic)    5.49

====

TESTED_ON: ecClpXP (Escherichia coli, UniProt P0A6G7+P0A6H1)
Sequence (P0A6H1 2-424, one chain of several): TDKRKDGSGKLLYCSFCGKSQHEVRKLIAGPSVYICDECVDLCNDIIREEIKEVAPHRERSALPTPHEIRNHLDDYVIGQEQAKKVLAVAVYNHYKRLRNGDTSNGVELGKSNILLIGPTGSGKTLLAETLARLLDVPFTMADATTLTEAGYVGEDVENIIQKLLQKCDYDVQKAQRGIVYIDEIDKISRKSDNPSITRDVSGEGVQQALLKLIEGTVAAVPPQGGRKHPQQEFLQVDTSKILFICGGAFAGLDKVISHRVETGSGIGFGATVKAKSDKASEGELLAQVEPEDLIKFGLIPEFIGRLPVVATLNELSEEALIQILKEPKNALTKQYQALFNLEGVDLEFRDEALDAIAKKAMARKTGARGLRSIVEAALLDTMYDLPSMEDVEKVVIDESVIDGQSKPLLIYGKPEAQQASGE
ASSAY_COMMENT: fluorogenic peptidase assay
CONDITION_DESCRIPTION: substrate Suc-LY-AMC; competitive
OBSERVATION_TYPE: Ki (µM)

1) CCCCCCc1c(O)c(Cl)cc2c1OC1(C2=O)C(Cl)=C(Cl)C(=O)N1C (racemic)    36.7

====

TESTED_ON: ecClpP (Escherichia coli, UniProt P0A6G7)
Sequence (P0A6G7 15-207): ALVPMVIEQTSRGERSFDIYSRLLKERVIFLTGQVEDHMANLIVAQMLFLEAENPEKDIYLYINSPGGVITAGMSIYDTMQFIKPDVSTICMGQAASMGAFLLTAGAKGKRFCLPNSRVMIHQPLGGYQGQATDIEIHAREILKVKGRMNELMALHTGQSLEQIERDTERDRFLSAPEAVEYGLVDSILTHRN
OBSERVATION_TYPE: Ki (µM)

1. CCCCCCc1c(O)c(Cl)cc2c1OC1(C2=O)C(Cl)=C(Cl)C(=O)N1C (racemic)    58.8
